System: human telomerase
procedure_text: TRAP assay of telomerase activity in permeabilized HME50-5 cells
Format: cell-based
run_conditions: 37° C., read-out: IC50 (nM) Perm. Cells 37° C.
Define the label as True when IC50 is strictly less than 400 nM and as False in all remaining cases.

Query string: Given PNA (V): complementary PNA, sequence AGTTAGGGTTAG (all peptide nucleic acid (PNA)) , is recorded IC50 strictly lower than 400 nM?
Result string: True

Query string: A record lists PNA (III): complementary PNA, sequence TTAGGGTTAG (all peptide nucleic acid (PNA)) . Is its IC50 below 400 nM?
Result string: False

Query string: Quick check: IC50 of PNA (XI): complementary PNA, sequence GGGTTAGACAA (all peptide nucleic acid (PNA)) under 400 nM?
Result string: True

Query string: Please state whether IC50 is below 400 nM for PNA (IV): complementary PNA, sequence GTTAGGGTTAG (all peptide nucleic acid (PNA))
Result string: True

Query string: Check if IC50 falls below 400 nM for PNA (VI): complementary PNA, sequence CAGTTAGGGTTAG (all peptide nucleic acid (PNA)) .
Result string: True

Ref: patent US6294650A
